# System under test: T1, hen egg white lysozyme (Gallus gallus (hen egg white), UniProt P00698)
# T1 construct: hen egg white lysozyme (HEWL), 14.5 kDa, monomeric; The source is named for ITC (Roche powder); also called HEWL; source: bought: Roche (HEWL lysozyme powder, > 95%)
# T1 sequence (P00698 19-147): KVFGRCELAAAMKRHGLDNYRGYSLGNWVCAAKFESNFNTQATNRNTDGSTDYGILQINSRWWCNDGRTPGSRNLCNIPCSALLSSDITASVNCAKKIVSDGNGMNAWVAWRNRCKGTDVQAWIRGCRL
# Experiment: SPR; Biacore T200; lysozyme amine-coupled (EDC/NHS) to a CM5 chip, max 100 units; nanobody as analyte, multi-cycle kinetics; PBS with 0.01% tween20; 20 °C (row labels of Table 1); Langmuir 1:1 model
# Reported conditions: both partners purified
Note to self: values exactly at 200000 M⁻¹ s⁻¹ are rule met. So kon at or above 200000 M⁻¹ s⁻¹ is rule met, below is rule not met.

Q) Please check the record Cab-Lys3 T101S nanobody (VHH, as the chain of m6 (Cab-Lys3) with T101S in CDR3; source: E. coli T7-Express, purified (IMAC, Superdex-75)) VHH: DVQLQASGGGSVQAGGSLRLSCAASGYTIGPYCMGWFRQAPGKEREGVAAINMGGGITYYADSVKGRFTISQDNAKNTVYLLMNSLEPEDTAIYYCAADSSIYASYYECGHGLSTGGYGYDSWGQGTQVTVSS and state if its kon is at or above 200000 M⁻¹ s⁻¹.
A) rule not met

Q) Please check the record H04 nanobody (VHH, crystal structure with lysozyme PDB 4U3X (Rouet et al. 2015); CDR3 of 12 residues; Developed in Daniel Christ's group (Rouet et al. 2015); source: E. coli T7-Express, purified (IMAC, Superdex-75)) VHH: EVQLLESGGGLVQPGGSLRLSCAASGFRFDAEDMGWVRQAPGKGLEWVSSIYGPSGSTYYADSVKGRFTISRDNSKNTLYLQMNSLRAEDTAVYYCAKYTSPPQNHGFDYWGQGTLVTVSS and state if its kon is at or above 200000 M⁻¹ s⁻¹.
A) rule not met

Q) Please check the record Phage-B09 nanobody (VHH, selected by phage display from the NaLi-H1 synthetic library (Hybrigenics); also called P-B09; source: E. coli T7-Express, purified (IMAC, Superdex-75)) VHH: EVQLQASGGGFVQPGGSLRLSCAASGSTYRRSTMGWFRQAPGKEREFVSAISSDHSHPDYYADSVKGRFTISRDNSKNTVYLQMNSLRAEDTATYYCAFQYDSDKKSYWGQGTQVTVSS and state if its kon is at or above 200000 M⁻¹ s⁻¹.
A) rule met

Q) Please check the record Cab-Lys3 nanobody (VHH, crystal structure PDB 1XFP named for it (Muyldermans and Lauwereys 1999); CDR3 of 24 residues with an extra disulphide between CDR1 and CDR3; also called WT Cab-Lys3; source: E. coli T7-Express, purified (IMAC, Superdex-75)) VHH: DVQLQASGGGSVQAGGSLRLSCAASGYTIGPYCMGWFRQAPGKEREGVAAINMGGGITYYADSVKGRFTISQDNAKNTVYLLMNSLEPEDTAIYYCAADSTIYASYYECGHGLSTGGYGYDSWGQGTQVTVSS and state if its kon is at or above 200000 M⁻¹ s⁻¹.
A) rule not met

Q) Please check the record H04 H106A nanobody (VHH, as the chain of m2 (H04) with H106A in CDR3; source: E. coli T7-Express, purified (IMAC, Superdex-75)) VHH: EVQLLESGGGLVQPGGSLRLSCAASGFRFDAEDMGWVRQAPGKGLEWVSSIYGPSGSTYYADSVKGRFTISRDNSKNTLYLQMNSLRAEDTAVYYCAKYTSPPQNAGFDYWGQGTLVTVSS and state if its kon is at or above 200000 M⁻¹ s⁻¹.
A) rule met

Q) Please check the record Cab-Lys3 S105N nanobody (VHH, as the chain of m6 (Cab-Lys3) with S105N in CDR3; source: E. coli T7-Express, purified (IMAC, Superdex-75)) VHH: DVQLQASGGGSVQAGGSLRLSCAASGYTIGPYCMGWFRQAPGKEREGVAAINMGGGITYYADSVKGRFTISQDNAKNTVYLLMNSLEPEDTAIYYCAADSTIYANYYECGHGLSTGGYGYDSWGQGTQVTVSS and state if its kon is at or above 200000 M⁻¹ s⁻¹.
A) rule not met
